# measurement_description: Stability of Exendin-4 derivatives under basic conditions (PBS pH 7.4, 40° C., LC-MS purity)
# Type: physicochemical
# run_conditions: 5 days
Where no end group is shown, it is not given here. [ ]: non-standard residue; d: D form. code ∗ = not defined here
assay_metric: 5 days Purity (%)
Give bare numbers, in %.

substance: HdAEGTFTSDL SKQMEEEAVR LFIEWLVKGG PSSGAPPPK* (H[dA]EGTFTSDLSKQMEEEAVRLFIEWLVKGGPSSGAPPPK(code ∗); reading uncertain; also: C-terminal modification (*)) [Sample 11]
5 days Purity (%): 97.1
//
substance: HdAEGTFTSDL SKQMEEEAVR LFIEWLKNGG PSSGAPPPC-PEG40K [Sample 4]
5 days Purity (%): 99.0
//
substance: HdAEGTFTTSDL SKQNleEEEAVR LFIEWLKQGG PSSGAPPPC-PEG40K [Sample 13]
5 days Purity (%): 99.3
//
substance: HdAEGTFTTSDL SKQNleEEEAVR LFIEWLKQGG PSSGAPPPC(AM) [Sample 9-2]
5 days Purity (%): 98.8
//
substance: HdAEGTFTSDL SKQNleEEEAVR LFIEWLKQGG PSSGAPPPS-NH2 [Sample 3]
5 days Purity (%): 98.6

Give 5 days Purity (%) for the following substance: HGEGTFTSDLSKQMEEEAVRLFIEWLKQGGPSSGAPPPK* [Sample 5] 95.7
